Reported T/C by item:
- System: L1210 leukemia ip in BDF1 mice, survival T/C
- procedureDetails: NCI In Vivo Anticancer Drug Screen. Data for tumor model L1210 Leukemia (intraperitoneal) in B6D2F1 (BDF1) mice
- conditionsUsed: endpoint: mean survival time; dose: 400.0 mg/kg/injection; schedule: Q01DX001 (ip); vehicle: carboxymethylcellulose (CMC); higher = longer survival
Inconclusive results and toxic doses are left out.
measure: T/C

>>> df
                                    molecule                        targetortestsystem  measure        assayvalue
 0                   O=C(O)/C=C/c1cccc(Br)c1  L1210 leukemia ip in BDF1 mice, survival T/C      T/C  101 % of control
 1  COc1ccc2c(c1)C1(C)CCCC(C)(C(N)=O)C1CC2 (stereo not given)  L1210 leukemia ip in BDF1 mice, survival T/C      T/C   98 % of control
 2  Cc1ccc(-c2c([N+](=O)[O-])ccc(Cl)c2[N+](=O)[O-])cc1  L1210 leukemia ip in BDF1 mice, survival T/C      T/C  100 % of control
 3  CCCOc1ccc(C2=C(c3ccccc3)C(=O)C(c3ccccc3)=C2c2ccccc2)cc1  L1210 leukemia ip in BDF1 mice, survival T/C      T/C   94 % of control
 4               Cc1ccc(Br)c([N+](=O)[O-])c1  L1210 leukemia ip in BDF1 mice, survival T/C      T/C  107 % of control
 5  CCOP(=O)(Nc1ccc2c(c1)Cc1c-2cc(Br)c(NC(C)=O)c1Br)OCC  L1210 leukemia ip in BDF1 mice, survival T/C      T/C  100 % of control
 6              CC(=O)c1cccc2c(C(C)=O)cccc12  L1210 leukemia ip in BDF1 mice, survival T/C      T/C  103 % of control
 7   O=[N+]([O-])c1cccc2c1/C(=N/O)c1ccccc1-2  L1210 leukemia ip in BDF1 mice, survival T/C      T/C   98 % of control
 8       Cc1ccc(S(=O)(=O)Nc2cccc3cnccc23)cc1  L1210 leukemia ip in BDF1 mice, survival T/C      T/C  105 % of control
 9         CC(C)(C)CC1=C(O)c2ccccc2C(=O)C1=O  L1210 leukemia ip in BDF1 mice, survival T/C      T/C  100 % of control
10      CC(=O)Nc1ccc(-n2cnc3c(Cl)ncnc32)cc1C  L1210 leukemia ip in BDF1 mice, survival T/C      T/C   91 % of control
11  Nc1nc(=S)c2ncn(C3OC(CO)C(O)C3O)c2[nH]1 (stereo not given)  L1210 leukemia ip in BDF1 mice, survival T/C      T/C  103 % of control
12                 Cc1ccc(CC(=O)N2CCOCC2)cc1  L1210 leukemia ip in BDF1 mice, survival T/C      T/C   92 % of control
13  O=C1C(Br)=C(c2ccccc2)C(=O)C(Br)=C1c1ccccc1  L1210 leukemia ip in BDF1 mice, survival T/C      T/C   97 % of control
14  O=C(Nc1ccc(Cl)c(Cl)c1)OCCN(c1ccccc1)c1ccccc1  L1210 leukemia ip in BDF1 mice, survival T/C      T/C   92 % of control
15    NS(=O)(=O)c1ccc(NC(=O)Nc2ccc(F)cc2)cc1  L1210 leukemia ip in BDF1 mice, survival T/C      T/C   99 % of control
16  COc1cc(CC(C(=O)OC(C)(C)C)C(=O)OC(C)(C)C)cc(OC)c1OC  L1210 leukemia ip in BDF1 mice, survival T/C      T/C  109 % of control
17  Nc1ncnc(N)c1NC(=O)c1ccc(OCCCOc2ccccc2)c(Cl)c1  L1210 leukemia ip in BDF1 mice, survival T/C      T/C   96 % of control
18          N#CCC1CC=CCC1 (stereo not given)  L1210 leukemia ip in BDF1 mice, survival T/C      T/C  104 % of control
19       Cc1cccc(NC(=O)N2CCN(c3ccccc3)CC2)c1  L1210 leukemia ip in BDF1 mice, survival T/C      T/C  104 % of control
